target: yeast carboxypeptidase Y (CPD-Y), wild type (SEQ ID NO:32) (Saccharomyces cerevisiae); construct: purchased Carlbiotech, Copenhagen, Denmark; experiment: Aminolysis of ester/peptide substrates; KN(app) of nucleophile; assay type: biochemical; conditions: Table III (unit as in Tables I, II); amino acid nucleophile, ester substrate
Sequence (P00729 112-532): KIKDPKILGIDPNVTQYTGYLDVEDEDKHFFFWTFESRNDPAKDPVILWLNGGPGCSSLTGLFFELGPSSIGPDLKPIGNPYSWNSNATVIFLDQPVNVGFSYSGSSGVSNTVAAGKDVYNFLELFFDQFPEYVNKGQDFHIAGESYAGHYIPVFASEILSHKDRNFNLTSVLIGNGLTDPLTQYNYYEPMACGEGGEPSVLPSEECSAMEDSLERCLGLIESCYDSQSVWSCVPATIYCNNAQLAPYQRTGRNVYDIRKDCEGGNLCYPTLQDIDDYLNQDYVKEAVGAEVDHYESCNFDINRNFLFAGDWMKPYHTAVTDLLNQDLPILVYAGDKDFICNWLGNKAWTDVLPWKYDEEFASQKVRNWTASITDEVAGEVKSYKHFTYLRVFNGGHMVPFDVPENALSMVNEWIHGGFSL
Label rule, in plain words: KN(app) of 200 mM and up is 1.0, under 200 mM is 0.0.

molecule: N[C@@H](CO)C(=O)O [H--Ser--OH, H-Ser-OH]
measured on: yeast carboxypeptidase Y (CPD-Y), wild type (SEQ ID NO:32) (Saccharomyces cerevisiae)
assigned class: 1.0
--
molecule: C[C@H](N)C(=O)O [H--Ala--OH, H-Ala-OH]
measured on: yeast carboxypeptidase Y (CPD-Y), wild type (SEQ ID NO:32) (Saccharomyces cerevisiae)
assigned class: 0.0
--
molecule: CC(C)[C@H](N)C(=O)O [H--Val--OH, H-Val-OH]
measured on: yeast carboxypeptidase Y (CPD-Y), wild type (SEQ ID NO:32) (Saccharomyces cerevisiae)
assigned class: 0.0
--
molecule: N[C@@H](Cc1ccccc1)C(=O)O [H--Phe--OH, H-Phe-OH]
measured on: yeast carboxypeptidase Y (CPD-Y), wild type (SEQ ID NO:32) (Saccharomyces cerevisiae)
assigned class: 0.0
--
molecule: NCC(=O)O [H--Gly--OH, H-Gly-OH]
measured on: yeast carboxypeptidase Y (CPD-Y), wild type (SEQ ID NO:32) (Saccharomyces cerevisiae)
assigned class: 1.0
--
molecule: NC(=O)CC[C@H](N)C(=O)O [H--Gln--OH, H-Gln-OH]
measured on: yeast carboxypeptidase Y (CPD-Y), wild type (SEQ ID NO:32) (Saccharomyces cerevisiae)
assigned class: 0.0
--
molecule: CC(C)C[C@H](N)C(=O)O [H--Leu--OH, H-Leu-OH]
measured on: yeast carboxypeptidase Y (CPD-Y), wild type (SEQ ID NO:32) (Saccharomyces cerevisiae)
assigned class: 0.0
--
molecule: N[C@@H](Cc1c[nH]cn1)C(=O)O [H--His--OH, H-His-OH]
measured on: yeast carboxypeptidase Y (CPD-Y), wild type (SEQ ID NO:32) (Saccharomyces cerevisiae)
assigned class: 0.0
--
molecule: NCCCC[C@H](N)C(=O)O [H--Lys--OH, H-Lys-OH]
measured on: yeast carboxypeptidase Y (CPD-Y), wild type (SEQ ID NO:32) (Saccharomyces cerevisiae)
assigned class: 0.0
